Tested on: MRSA USA300
Assay: Antibacterial activity assay (MIC by broth microdilution, MBC by subculture)
Format: cell-based, Staphylococcus aureus
Settings: +8 mg/L DHA
Measured property: MBC (µg/mL)
Kindly provide the numeric value in µg/mL only, without the unit symbol.

The following molecules have reported results that may help.
| Molecule | Test target | Measure unit | MBC |
| --- | --- | --- | --- |
| O=C(Nc1cc(C(F)(F)F)cc(C(F)(F)F)c1)C(Cc1ccccc1)C(=O)Nc1cc(C(F)(F)F)cc(C(F)(F)F)c1 [SC5044] | MRSA USA300 | µg/mL | 0.0078 |
| O=C(Nc1cc(Cl)cc(Cl)c1)C(F)(CCCl)C(=O)Nc1cc(Cl)cc(Cl)c1 [SC5104] | MRSA USA300 | µg/mL | 0.0078 |

Data request: State its MBC for this molecule: O=C(CC(=O)Nc1ccc(Cl)c(C(F)(F)F)c1)Nc1ccc(Cl)c(C(F)(F)F)c1 [SC5106]
Data returned: 0.5
